Hey, just so you know, these numbers are from paper PMC7529893.

Molecular target: MAGE-A11:PCF11 interaction (GST-MAGE-A11 and FAM-PCF11_4) (Homo sapiens)
Construct: GST-MAGE-A11 MHD (human MAGE-A11 MHD amino acid 218-429); made in house; host or cells: E. coli BL21(DE3)
Sequence (P43364 218-429): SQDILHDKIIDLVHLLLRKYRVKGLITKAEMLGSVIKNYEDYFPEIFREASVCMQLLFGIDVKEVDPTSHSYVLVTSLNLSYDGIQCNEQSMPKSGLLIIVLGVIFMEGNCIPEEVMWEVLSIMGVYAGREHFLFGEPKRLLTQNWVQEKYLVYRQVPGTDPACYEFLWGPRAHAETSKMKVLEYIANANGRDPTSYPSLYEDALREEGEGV
Assay: TR-FRET primary / single point screen at 15 µM
Type: binding
Settings: single point TR-FRET screening of 797 quinoline compounds against MAGE-A11:PCF11
EXPERIMENTAL_READOUT: percent inhibition (TR-FRET)

percent inhibition (TR-FRET) for CCCN(CCCNc1c2ccc(Cl)cc2nc2ccc(OC)cc12)CC(C)CC (stereo not shown) [SJ000520959] is -264.817

percent inhibition (TR-FRET) for Cc1cc(NC(=O)CN2CCN(C(=O)c3ccco3)CC2)c2ccccc2n1 [SJ000111679] is -1.072

percent inhibition (TR-FRET) for Cc1ccc(C)c(CN(CCCCNc2ccnc3cc(Cl)ccc23)Cc2ccccc2)c1 [SJ000361209] is 32.6515
